This section presents binders with their documented kon values.
- target-under-test: T1, c-erbB-2 ECD with a Ser-Gly-His6 C-terminal fusion (UniProt P04626 23-652)
- T1 construct: extracellular domain; expressed from CHO cells, IMAC purified; coupled to a CM5 chip, adsorbed to polystyrene, or biotinylated and captured on avidin; also called c-erbB-2 extracellular domain; biotinylated c-erbB-2 ECD
- experiment-notes: SPR (BIAcore)
reported-property: kon (M⁻¹ s⁻¹)

[
  {
    "binder": "C6ML3-1 (scFv, C6.5 with this VL CDR3; C-terminal myc and His6 tags) scFv: QVQLLQSGAELKKPGESLKISCKGSGYSFTSYWIAWVRQMPGKGLEYMGLIYPGDSDTKYSPSFQGQVTISVDKSVSTAYLQWSSLKPSDSAVYFCARHDVGYCSSSNCAKWPEYFQHWGQGTLVTVSSGGGGSGGGGSGGGGSQSVLTQPPSVSAAPGQKVTISCSGSSSNIGNNYVSWYQQLPGTAPKLLIYGHTNRPAGVPDRFSGSKSGTSASLAISGFRSEDEADYYCAAWDYSLWGWVFGGGTKLTVLG",
    "reported-property": "kon",
    "reported-result": 300000
  },
  {
    "binder": "C6ML3-5 (scFv, C6.5 with this VL CDR3; C-terminal myc and His6 tags) scFv: QVQLLQSGAELKKPGESLKISCKGSGYSFTSYWIAWVRQMPGKGLEYMGLIYPGDSDTKYSPSFQGQVTISVDKSVSTAYLQWSSLKPSDSAVYFCARHDVGYCSSSNCAKWPEYFQHWGQGTLVTVSSGGGGSGGGGSGGGGSQSVLTQPPSVSAAPGQKVTISCSGSSSNIGNNYVSWYQQLPGTAPKLLIYGHTNRPAGVPDRFSGSKSGTSASLAISGFRSEDEADYYCAAWDYSLSGWVFGGGTKLTVLG",
    "reported-property": "kon",
    "reported-result": 590000
  },
  {
    "binder": "C6ML3-6 (scFv, C6.5 with this VL CDR3; C-terminal myc and His6 tags) scFv: QVQLLQSGAELKKPGESLKISCKGSGYSFTSYWIAWVRQMPGKGLEYMGLIYPGDSDTKYSPSFQGQVTISVDKSVSTAYLQWSSLKPSDSAVYFCARHDVGYCSSSNCAKWPEYFQHWGQGTLVTVSSGGGGSGGGGSGGGGSQSVLTQPPSVSAAPGQKVTISCSGSSSNIGNNYVSWYQQLPGTAPKLLIYGHTNRPAGVPDRFSGSKSGTSASLAISGFRSEDEADYYCASWDYSLSGWVFGGGTKLTVLG",
    "reported-property": "kon",
    "reported-result": 590000
  },
  {
    "binder": "C6ML3-10 (scFv, C6.5 with this VL CDR3; C-terminal myc and His6 tags) scFv: QVQLLQSGAELKKPGESLKISCKGSGYSFTSYWIAWVRQMPGKGLEYMGLIYPGDSDTKYSPSFQGQVTISVDKSVSTAYLQWSSLKPSDSAVYFCARHDVGYCSSSNCAKWPEYFQHWGQGTLVTVSSGGGGSGGGGSGGGGSQSVLTQPPSVSAAPGQKVTISCSGSSSNIGNNYVSWYQQLPGTAPKLLIYGHTNRPAGVPDRFSGSKSGTSASLAISGFRSEDEADYYCAAWEDPWYGWVFGGGTKLTVLG",
    "reported-property": "kon",
    "reported-result": 610000
  }
]

The reported numbers originate from patent US20060287509A1.
